test: photoluminescence quantum yield (fraction); solvent given as SMILES; conditions: in CCCCCCC
measuredAttribute: photoluminescence quantum yield

Example entries begin here.
CCN(CC)c1ccc2ccc(=O)oc2c1	0.85
O=C1OC(c2ccccc2)=N/C1=C\c1ccc(N(c2ccccc2)c2ccccc2)cc1	0.034
COc1ncccc1B(O)O	0.689
COc1ccc(C#Cc2ccc(C#N)cc2)cc1	0.17
CN(C)c1ccc2nc(/C=C/c3cc4c5c(c3)CCCN5CCC4)c(=O)oc2c1	0.32
c1ccc2c3c(ccc2c1)-c1cccc2cc4ccccc4c-3c12	0.00078

Provide photoluminescence quantum yield value for the following compound: C(/C=C/c1ccc(-n2c3ccccc3c3ccccc32)cc1)=C\c1ccncc1
0.78

Please list photoluminescence quantum yield recorded for the compound CC1(C)CC(=O)C2=C(C1)Oc1ccc3ccc(O)cc3c1C2c1ccccn1 (stereo unspecified)
0.0082

Specify reported photoluminescence quantum yield for the compound shown: CC1(C)CC(=O)C2=C(C1)Oc1ccc3cc(O)ccc3c1C2c1ccccn1 (stereo unspecified)
0.05

Give reported photoluminescence quantum yield value for c1cc2c3c(cccc3c1)-c1c-2ccc2ccc3ccccc3c12
0.14

Note photoluminescence quantum yield for the compound shown: CC(C)CCC[C@@H](C)[C@H]1CC[C@H]2[C@@H]3CC=C4C[C@@H](OC(=O)Oc5cc(/C=C/C=C/c6ccc(N(C)C)cc6)ccc5[N+](=O)[O-])CC[C@]4(C)[C@H]3CC[C@]12C
0.28

----------
assay: photoluminescence quantum yield (fraction); solvent given as SMILES; settings: in ClCCl
Record Met whenever photoluminescence quantum yield is at 0.2 or higher; record Not met when lower.

COc1ccc2n1[B-](F)(F)[N+]1=CC=CC1=C2c1ccccc1	Not met
CCCCCCCCN1c2ccccc2Sc2cc(/C=C/c3ccc(N(c4ccc(/C=C/c5ccc6c(c5)Sc5ccccc5N6CCCCCCCC)cc4)c4ccc(/C=C/c5ccc(/C=C/c6ccc(N(c7ccc(/C=C/c8ccc(N(c9ccccc9)c9ccccc9)cc8)cc7)c7ccc(/C=C/c8ccc(N(c9ccccc9)c9ccccc9)cc8)cc7)cc6)c6nsnc56)cc4)cc3)ccc21	Not met
CCC1(CC)c2cc(C=O)ccc2-c2ccc(N(C)C)cc21	Met
CCCCCCC1(CCCCCC)c2ccccc2-c2ccc(-c3ccc(-c4cc(-c5ccccn5)nc(-c5ccccn5)c4)cc3)cc21	Met

We next turn to a different molecule, shown below.
Kindly determine if photoluminescence quantum yield recorded for CCC1(CC)c2cc(C=C(C#N)C#N)ccc2-c2ccc(N(C)C)cc21 is above or exactly 0.2.
Met

----------
experiment: photoluminescence quantum yield (fraction); solvent given as SMILES; settings: in C1CCOC1
Mark y for reported photoluminescence quantum yield of 0.3 or greater; mark n for anything smaller.

Example results:
CCCCn1c2ccc(C#Cc3cccs3)cc2c2c1c1c3ccc(C#Cc4cccs4)cc3n(CCCC)c1c1c3ccc(C#Cc4cccs4)cc3n(CCCC)c21	y
N#Cc1ccc(C2=CC3=c4cc(-c5ccc(C#N)cc5)c5nc(C(F)(F)C(F)(F)C(F)(F)F)nc6c(-c7ccc(C#N)cc7)cc(c4c65)C4=CC(c5ccc(C#N)cc5)=C5N=C(C(F)(F)C(F)(F)C(F)(F)F)N=C2C5C43)cc1 (stereo unspecified)	y
Cc1ccc(-n2c3ccccc3c3cc(C=C(C#N)C#N)ccc32)cc1	n
CCN(CC)c1ccc(C(=C(c2ccccc2)c2ccc(B(c3c(C)cc(C)cc3C)c3c(C)cc(C)cc3C)cc2)c2ccc(N(CC)CC)cc2)cc1	n

Attention now turns to another entry.
Is it the case that CCCCCCc1ccc2c3c(ccc2c1)O[B-](c1ccccc1)(c1ccccc1)[N+](c1cc([N+]2=Cc4c(ccc5cc(CCCCCC)ccc45)O[B-]2(c2ccccc2)c2ccccc2)cc([N+]2=Cc4c(ccc5cc(CCCCCC)ccc45)O[B-]2(c2ccccc2)c2ccccc2)c1)=C3 has photoluminescence quantum yield reaching or exceeding 0.3?
n

----------
assay: photoluminescence quantum yield (fraction); solvent given as SMILES; conditions: in CO
Readings of photoluminescence quantum yield for the listed compounds
Reply with just the number.

Reference set, count: 3
Cc1ccc(C2=C3C=C(I)C=[N+]3[B-](F)(F)n3cccc32)cc1	0.008
CCC1=C(C)C2=Cc3cscc3B(O)N2C1=O	0.35
CCCCCCOc1ccc2oc3c(c2c1)=CC1=C(c2ccccc2C)c2cc4c5cc(OCCCCCC)ccc5oc4n2[B-](F)(F)[N+]=31	0.29

Please report the measured photoluminescence quantum yield for Cc1cc(C)c(B(c2cc(-c3ccc(C(F)(F)F)cc3)sc2-c2sc(-c3ccc(C(F)(F)F)cc3)cc2P(=O)(c2ccccc2)c2ccccc2)c2c(C)cc(C)cc2C)c(C)c1
0.41

Write down photoluminescence quantum yield measured for item COC1=[N+]2C(=C(c3ccccc3)c3ccc(OC)n3[B-]2(F)F)C=C1
0.14

Using known records, supply photoluminescence quantum yield for COc1ccc(-c2cc3c(o2)=CC2=Cc4cc5oc(-c6ccc(OC)cc6)cc5n4[B-](F)(F)[N+]=32)cc1
0.77

Quickly give me recorded photoluminescence quantum yield for c1ccc(C2CCN3COc4c5ccccc5c5c6c7c(c2c3c46)C(c2ccccc2)CCN7CO5)cc1 (stereo not drawn)
0.023

Return the recorded photoluminescence quantum yield value; entry: N#Cc1nc2c(OCc3ccccc3)nc(N)nc2n1Cc1ccccc1
0.14

----------
experiment: photoluminescence quantum yield (fraction); solvent given as SMILES; details: in Cc1ccccc1
Define the label as 1 when photoluminescence quantum yield is strictly less than 0.7 and as 0 in all remaining cases.

For orientation, consider the following solved cases.
Cc1cc(C)c(B(c2c(C)cc(C)cc2C)N2c3ccccc3C(C)(C)c3ccccc32)c(C)c1	0
COc1ccc(-c2cc(C)nc(-c3ccc(-n4c5ccccc5c5ccccc54)cc3)n2)cc1	1
Cc1ccc2c(c1)c1cc(C)ccc1n2-c1cccc(-n2c3ccc(C)cc3c3cc(C)ccc32)c1C#N	1
CCn1c2ccccc2c2cc(-c3cc(-c4ccc5c(c4)c4ccccc4n5CC)nc(-c4ccc(C#N)cc4)n3)ccc21	1
COC(=O)C(Cc1ccc2oc(-c3ccc4c(c3)c3ccccc3n4-c3ccccc3)nc2c1)NC(=O)OC(C)(C)C (centres undefined)	0
O=S(=O)(c1ccccc1)c1ccc(-n2c3ccccc3c3c2c2ccccc2n3-c2ccccc2)cc1	1
CCCCN1C(=O)c2cccc3cccc(c23)C1=O	1

Okay, next one:
Consider CCn1c2ccsc2c2c3nsnc3c3c4sccc4n(CC)c3c21 . Does its photoluminescence quantum yield lie strictly below 0.7?
0

----------
assay: photoluminescence quantum yield (fraction); solvent given as SMILES; conditions: in CO
Output T for records whose photoluminescence quantum yield is lower than 0.1, F for records at or above 0.1.

Completed entries (count: 10):
Cc1ccc(O)c(-c2[nH]c(=O)n3c2-c2ccccc2C3=O)c1	F
CCCCc1ccc2ccc3cccc4ccc1c2c34	F
CCCCC1=Cc2c3ccc4cccc5ccc(c6cc(-c7ccc(N(c8ccccc8)c8ccccc8)cc7)n(c26)P1(=O)c1ccccc1)c3c45 (stereo not given)	F
CC1(C)C(/C=C/C2=C(Cl)C(=C/C=C3/N(CCCS(=O)(=O)[O-])c4ccccc4C3(C)C)/CCC2)=[N+](CCCS(=O)(=O)[O-])c2ccccc21	T
COc1ccc(-c2cc3ccc4cc(-c5ccc(OC)cc5)cc5ccc(c2)c3c45)cc1	T
COC(=O)COc1ccc(/C=C/C2=[N+]3C(=C(c4ccc(N5CCCCC5)cc4)c4c(C)cc(C)n4[B-]3(F)F)C(C)=C2)cc1	F
F[B-]1(F)n2ccnc2-c2cccc[n+]21	T
COc1nc(Nc2ccc3ccc4cccc5ccc2c3c45)nc(OC)n1	T
N#Cc1c(-n2nnc3c2-c2ccccc2CN(C(=O)CCN)c2ccccc2-3)n([C@H]2C[C@H](O)[C@@H](CO)O2)c2ncnc(N)c12	T
Cc1ccc2ccc3cccc4ccc1c2c34	F

Given the entry COc1ccc2c3c(cccc13)C(=O)c1ccccc1-2 , would its reported photoluminescence quantum yield be below 0.1?
F

Would you kindly verify if photoluminescence quantum yield of CC(=O)c1ccc(-c2nc3ccc(N(C)C)c(Br)c3s2)cc1 is strictly less than 0.1?
T

----------
test: photoluminescence quantum yield (fraction); solvent given as SMILES; conditions: in CO
Each entry belongs to exactly one class, chosen by where its photoluminescence quantum yield falls: LOW (below 0.2), MEDIUM (0.2 to below 0.7), HIGH (0.7 or more)

COC(=O)c1nc2cnc(N(C)C)nc2n1Cc1ccccc1	LOW
COC(=O)C(NC(=O)OC(C)(C)C)c1ccc2oc(-c3ccc(N(C)C)cc3OC)nc2c1 (stereo unspecified)	HIGH
Cc1ccc(C2=C3C=CC=[N+]3[B-](F)(F)n3cccc32)cc1	LOW
CC1=N/C(=C\c2ccccc2N)C(=O)N1C	LOW
N#Cc1ccc(C[C@H](N)C(=O)O)cc1	LOW
CCC1=C(C)C(=O)n2c1cc1c(CCC(=O)OC)c(C)c(C)n1c2=O	HIGH
O=Cc1ccc(C2=C3C=c4c(oc5ccccc45)=[N+]3[B-](F)(F)n3c2cc2c4ccccc4oc23)cc1	MEDIUM
[C-]#[N+]c1ccc(-c2ccc(NC)cc2)cc1	MEDIUM
COc1ncccc1B(O)O	MEDIUM
CCc1c(C)c2n(c1C)[B-](F)(F)[N+]1=C(NCc3ccc(OC)cc3)C(SC#N)=CC1=C2C	HIGH

Next item in the queue.
Given c1ccc(-c2nc3c(ccc4[nH]ccc43)o2)cc1 , name the class its photoluminescence quantum yield places it in.
MEDIUM

Cited source: the Deep4Chem optical property database
